system: Alopecurus myosuroides (ALOMY); assay: Pre-emergence herbicidal activity, glasshouse pot test; format: in vivo; details: Alopecurus myosuroides, 312 h; Rate 250 g/ha; pre-emergence spray; evaluated after 13 days; read-out: Pre-emergence activity ALOMY (100=total damage to plant; 0=no damage to plant)
Assignment: determine reported pest or weed control at 250 g/ha for the given molecules.
Numbers only, in %.

In [3]: df
Out[3]:
                                   molecule  recorded_result
0  CCc1ccc(Oc2c(F)cc(C#N)cc2F)cc1C1=C(O)C(C)(C)OC(C)(C)C1=O [Example A-166]               20

Kindly give each listed record's pest or weed control at 250 g/ha.
1. CCc1ccc(Oc2nc3ccc(OC(F)(F)F)cc3s2)cc1C1=C(O)C(C)(C)OC(C)(C)C1=O [Example A-218]
2. CCc1ccc(Oc2ccc(Br)cc2)cc1C1=C(O)CC2(CCOCC2)CC1=O [Example A-37]
3. CCc1ccc(Oc2ccc(Cl)cc2)cc1C1=C(O)C(C)(C)CCC1=O [Example A-50]
4. CCc1ccc(Oc2ccc(F)cc2)cc1C1=C(O)CC(C)(C)CC1=O [Example A-28]
5. CCc1ccc(Oc2nc3ccc(Cl)cc3[n+]([O-])n2)cc1C1=C(O)C(C)(C)OC(C)(C)C1=O [Example A-236]

Data returned:
[20, 70, 0, 20, 40]

Could I get pest or weed control at 250 g/ha for every one of these entries?
1. CCc1ccc(Oc2ccc(F)cc2)cc1C1=C(O)CC2(CCOCC2)CC1=O [Example A-35]
2. CCc1ccc(Oc2ccc(F)c(Cl)c2)cc1C1=C(O)[C@H]2CC[C@H](C2)C1=O [Example A-246]
3. CCc1ccc(Oc2ccc(Cl)cc2)cc1C1=C(O)CC(C)(C)CC1=O [Example A-26]
4. CCc1ccc(Oc2ccc3ccccc3c2)cc1C1=C(O)C(C)(C)OC(C)(C)C1=O [Example A-56]
5. CCc1ccc(Oc2ncc(Cl)cc2Cl)cc1C1=C(O)[C@@H]2CC[C@](C)(C1=O)C2(C)C [Example A-318]
6. CCc1ccc(Oc2ccccc2F)cc1C1=C(O)C(C)(C)OC(C)(C)C1=O [Example A-13]

Data returned:
90
70
70
80
90
0

Fill in pest or weed control at 250 g/ha for each of the 2 molecules listed.
1. CCc1ccc(Oc2ccc(C#N)cc2C(F)(F)F)cc1C1=C(O)CC2(CCOCC2)CC1=O [Example A-306]
2. CCc1ccc(Oc2nc3ccccc3s2)cc1C1=C(O)[C@H]2CC[C@H](C2)C1=O [Example A-337]

Data returned:
1. 60
2. 90

Need pest or weed control at 250 g/ha for each of these molecules.
1. CCc1ccc(Oc2ccc(Br)cc2[N+](=O)[O-])cc1C1=C(O)C(C)(C)OC(C)(C)C1=O [Example A-227]
2. CCc1ccc(Oc2ccc(F)cc2F)cc1C1=C(O)CCCC1=O [Example A-69]
3. CCc1ccc(Oc2c(F)cc(C(F)(F)F)cc2F)cc1C1=C(O)C(C)(C)OC(C)(C)C1=O [Example A-205]

Data returned:
[30, 20, 20]

* * *

test system: Alopecurus myosuroides (ALOMY); experiment: Pre-emergence herbicidal activity, glasshouse pot test; type: in vivo; settings: Alopecurus myosuroides, 312 h; Rate 250 g/ha; pre-emergence spray; evaluated after 13 days; read-out: Pre-emergence activity ALOMY (100=total damage to plant; 0=no damage to plant)
Would you mind telling me the reported pest or weed control at 250 g/ha of each entry?
One number for each entry, in %.

Example entries and their recorded answers appear below.
>>> df
                            compound_smiles                       tested_on  recorded_result
0  CCc1ccc(Oc2ccc(OC)nn2)cc1C1=C(O)C(C)(C)OC(C)(C)C1=O  Alopecurus myosuroides (ALOMY)                0
1  CCc1ccc(Oc2ccc(C(F)(F)F)cc2)cc1C1=C(O)C(C)(C)OC(C)(C)C1=O  Alopecurus myosuroides (ALOMY)               80

Data request: Specify reported pest or weed control at 250 g/ha for the compound shown: `CCc1ccc(Oc2ccc(Br)cc2C)cc1C1=C(O)C(C)(C)OC(C)(C)C1=O`
Data returned: 0
